Here the recorded TGI is given for each entry.
- System: DU-145 prostate
- measurement_description: NCI tumour cell line growth inhibition, 48 h

Please list TGI recorded for the compound COC(=O)[C@H](Cc1ccccc1)NC(=O)N(CCC#N)CCN(C(=O)N[C@@H](Cc1ccccc1)C(=O)OC)c1ccccc1 74.5 µM

* * *

- Tested on: HT29 colon
- measurement_description: NCI tumour cell line growth inhibition, 48 h
Here the recorded TGI is given for each entry.

As a guide, the following entries are already answered.
O=C(O)CN(CC(=O)O)C(C(=O)O)c1ccccc1 (configuration not stated)
> 100 µM
c1cnn2ncc(-c3ccnc(Nc4ccc5c(c4)OCCO5)n3)c2c1
0.358 µM
CN1c2ccccc2SC2C(c3ccccc3)=NOC21 (configuration not stated)
> 100 µM
COc1ccc(OC)c2sc(N3C(=O)/C(=C/c4cccc([N+](=O)[O-])c4)N=C3c3ccccc3)nc12
> 100 µM
O=C(CC(C(=O)c1ccco1)c1ccco1)c1ccco1 (configuration not stated)
> 100 µM

Please list TGI recorded for the compound CCOC(=O)c1c(SCCN2CCOCC2)n(-c2ccccc2)c(=S)n(-c2ccccc2)c1=O 34.9 µM

Please list TGI recorded for the compound Cc1c2ccncc2c(C)c2c1[nH]c1ccc(O)c(OCC(F)(F)F)c12 > 7.5 µM

Please list TGI recorded for the compound Cc1ccccc1/C=C/C(=O)c1ccccc1 47.7 µM

Please list TGI recorded for the compound COc1c(O)c(OC)c2oc(-c3ccc(O)cc3)c(OC)c(=O)c2c1O > 100 µM

Please list TGI recorded for the compound CSc1ccc(N(C)c2nc(C)nc3c2CCC3)cc1 11.1 µM

Please list TGI recorded for the compound Cc1cc(C)nc(NS(=O)(=O)c2ccc(NC(=O)c3cccc4c(NNc5ccc(S(=O)(=O)N=C(N)N)cc5)c5ccccc5nc34)cc2)n1 > 50 µM

Please list TGI recorded for the compound O=C1[C@H]2ON(c3ccccc3)C(c3ccco3)[C@H]2C(=O)N1c1ccc(Cc2ccc(N3C(=O)[C@@H]4ON(c5ccccc5)C(c5ccco5)[C@@H]4C3=O)cc2)cc1 (some centres not stated) > 100 µM

Please list TGI recorded for the compound COc1cc2nc(-c3ccc(C(F)(F)F)cc3)cc(OCCCN3CCCC3)c2cc1OC 5.85 µM

Please list TGI recorded for the compound Cc1cccc(N=Nc2ccc(N=Nc3c(O)ccc4ccccc34)cc2C)c1 > 100 µM

Please list TGI recorded for the compound Cc1cc(C)c(/C=C(\C(=C/c2c(C)cc(C)cc2C)[N+](=O)[O-])[N+](=O)[O-])c(C)c1 > 100 µM
